tested on: Cavia porcellus; assay: Postcoital antifertility activity was determined in guinea pigs after injected for 3 days subcutaneously (12-14 postmating days); IA- Inactive; assay type: functional, organism-based
Activity calls are given as the source filed them. No cut-off for these calls is given here.
property label: Activity

compound	result
COC(=O)C(C)CCC[C@@]1(C)COC(CO)CO1 (stereo not given in full)	inactive
CC(C)=CCC(=O)C(C)CCCC1(C)COC(CO)CO1 (stereo not given)	inactive
COC(=O)C(C)CCC[C@]1(C)COC(CO)CO1 (stereo not given in full)	inactive
CC(C)=CCC(=O)C(C)CCCC1(C)COC(CC(=O)O)CO1 (stereo not given)	inactive

Continue with the compound presented below.
Need Activity of CC(C)/C=C/C(=O)C(C)CCCC1(C)COC(CC(=O)O)CO1 (stereo not given) , thanks.
inactive
